target.of.assay: CsMES1 V18A (Citrus sinensis, UniProt A0A067GV78, V18A)
Construct: recombinant CsMES1 (KDO79352) from pET28a in E. coli
assay.overview: biochemical
pKd: −log10 of the molar value.
measured.parameter: pKd

[in] Endpoint output: pKd of O=C(c1ccccc1)C(F)(F)F . Value?
[out] ~6.52

====

target.of.assay: CsMES1 V18S (Citrus sinensis, UniProt A0A067GV78, V18S)
Construct: optimized CsMES1 V18S synthetic gene in pET28a, recombinant from E. coli
Sequence (A0A067GV78 1-267 V18S): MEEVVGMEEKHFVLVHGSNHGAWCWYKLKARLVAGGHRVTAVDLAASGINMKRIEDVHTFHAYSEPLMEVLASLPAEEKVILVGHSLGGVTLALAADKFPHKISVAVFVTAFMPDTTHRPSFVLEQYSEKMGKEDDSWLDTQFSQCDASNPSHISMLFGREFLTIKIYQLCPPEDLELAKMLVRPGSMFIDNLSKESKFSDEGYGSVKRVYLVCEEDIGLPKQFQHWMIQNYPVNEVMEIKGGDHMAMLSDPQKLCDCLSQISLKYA
assay.overview: biochemical
pKd: −log10 of the molar value.
measured.parameter: pKd

[in] Given the entry O=C(c1ccccc1)C(F)(F)F , report its measured pKd.
[out] ~6.52

====

target.of.assay: CsMES1 (Citrus sinensis, UniProt A0A067GV78)
Construct: recombinant CsMES1 (KDO79352) from pET28a in E. coli
assay.overview: ITC; also esterase inhibition (IC50 […] at […] MeSA)
measured.parameter: Kd (µM)
Give bare numbers, in µM.

[in] I would be grateful if you could share the reported Kd for O=C(c1ccccc1)C(F)(F)F .
[out] 7.1
